Target: human μ opioid receptor (Homo sapiens (Human), UniProt P35372)
Test: Alternate functional activity ([35S]GTPγS binding, SPA) assay
Settings: alternate [35S]GTPγS binding assay (SPA beads), CHO cell membranes expressing human μ opioid receptor
Excerpt: The [^35S]GTPγS assay measures the functional properties of a compound by quantifying the level of G-protein activation following agonist binding in studies using stably transfected cells, and is considered to be a measure of the efficacy of a compound. Membranes from CHO (Chinese Hamster Ovary) cells that stably expressed one type of the cloned human opioid receptor human were used in the experiments. […]
Quantity name: EC50

[
  {
    "Molecule": "CCOC1(c2cc(C(N)=O)ccc2F)C2CCCC1CN(C)C2 (stereo not shown)",
    "Quantity name": "EC50",
    "Experimental result": "0.01 to 0.075 µM"
  }
]
